system: catalytic domain of human Bub1 (amino acids 704-1085) (Homo sapiens, UniProt O43683)
Construct: catalytic domain of human Bub1 (amino acids 704-1085); His6 (N); made in house; host or cells: Hi5 insect cells
Sequence (O43683 704-1085): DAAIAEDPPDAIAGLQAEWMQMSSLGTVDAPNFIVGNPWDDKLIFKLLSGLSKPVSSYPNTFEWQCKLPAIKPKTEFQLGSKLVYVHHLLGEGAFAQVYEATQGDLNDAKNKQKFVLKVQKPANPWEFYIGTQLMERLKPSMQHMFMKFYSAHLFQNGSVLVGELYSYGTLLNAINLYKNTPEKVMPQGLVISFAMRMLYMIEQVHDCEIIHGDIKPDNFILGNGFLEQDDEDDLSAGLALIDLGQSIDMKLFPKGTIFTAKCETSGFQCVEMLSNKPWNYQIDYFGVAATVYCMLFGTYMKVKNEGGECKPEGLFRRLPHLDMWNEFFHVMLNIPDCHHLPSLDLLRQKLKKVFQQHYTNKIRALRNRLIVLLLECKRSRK
assay_protocol: Bub1 kinase assay (TR-FRET)
Format: biochemical
condition: Biological Assay 1: Bub1 kinase assay median IC50, 10 μM ATP
Assign IC50 to each entry below.
Answers are plain numbers, in nM.

Below are worked cases with known answers.
compound	IC50 (nM)
CCOc1cc(F)c(Cn2nc(-c3nc4c(c(Nc5ccncc5)n3)CNC4)c3ccccc32)c(F)c1 [Example 2-9-14]	11
CCOc1cc(F)c(Cn2nc(-c3ncc(CCS(C)(=O)=O)c(Nc4ccncc4)n3)c3ccccc32)c(F)c1 [Example 2-3-1]	6.1
CCOc1cc(F)c(Cn2nc(-c3ncc(CCCCN4CC(F)(F)C4)c(Nc4ccncc4)n3)c3ccccc32)c(F)c1 [Example 2-2-20]	58
CCOc1cc(F)c(Cn2nc(-c3nc4c(c(Nc5ccnc(C)c5)n3)CN(CC)CC4)c3ccccc32)c(F)c1 [Example 2-15-2]	47
CCOc1cc(F)c(Cn2nc(-c3ncc(CC[S@@+](C)[O-])c(Nc4ccncc4)n3)c3ccccc32)c(F)c1 [Example 2-1-1]	5
Cc1cc(Nc2nc(-c3nn(Cc4c(F)cc(O)cc4F)c4ccccc34)nc3c2CCC3)ccn1 [Example 2-6-8]	46
COCCOc1cc(F)c(Cn2nc(-c3nc(CN4CCOCC4)cc(Nc4ccncc4C)n3)c3ccccc32)c(F)c1 [Example 2-12-41]	8.8
COCCOc1cc(F)c(Cn2nc(-c3nc(CN4CCOCC4)cc(Nc4ccncc4Cl)n3)c3ccccc32)c(F)c1 [Example 2-12-40]	10
CC(=O)Nc1cc(Nc2nc(-c3nn(Cc4c(F)cc(OCCO)cc4F)c4ccccc34)ncc2C2CCN(CC(F)(F)F)CC2)ccn1 [Example 2-6-13]	53
OCCOc1cc(F)c(Cn2nc(-c3ncc(C4CCN(CCC(F)(F)F)CC4)c(Nc4ccncc4Cl)n3)c3ccccc32)c(F)c1 [Example 2-6-15]	31

I have 2 compounds here; please give me IC50 for each one.
1. CCOc1cc(F)c(Cn2nc(-c3nc4c(c(Nc5ccnc(NC(C)=O)c5)n3)CC(C)(C)CC4)c3ccccc32)c(F)c1 [Example 2-12-69]
2. CCOc1cc(F)c(Cn2nc(-c3nc4c(c(Nc5ccncc5)n3)CCN(Cc3ccccc3)C4)c3ccccc32)c(F)c1 [Example 2-12-15]

1. 8.8
2. 68

I have 6 compounds here; please give me IC50 for each one.
1. CCOc1cc(F)c(Cn2nc(-c3nc(CN4CCOCC4)cc(Nc4cc(O)ncn4)n3)c3ccccc32)c(F)c1 [Example 2-12-45]
2. CCOc1cc(F)c(Cn2nc(-c3nc4c(c(Nc5ccncc5)n3)CN(CC)CC4)c3ccccc32)c(F)c1 [Example 2-15-1]
3. CCOc1cc(F)c(Cn2nc(-c3ncc(CCCS(C)(=O)=O)c(Nc4ccncc4)n3)c3ccccc32)c(F)c1 [Example 2-3-2]
4. CCOc1cc(F)c(Cn2nc(-c3ncc(CCCCN4CCOCC4)c(Nc4ccncc4)n3)c3ccccc32)c(F)c1 [Example 2-2-12]
5. COCCOc1cc(F)c(Cn2nc(-c3nc(CN4CCOCC4)cc(Nc4ccncc4OC)n3)c3ccccc32)c(F)c1 [Example 2-12-42]
6. CCOc1cc(F)c(Cn2nc(-c3ncc4c(n3)N(c3ccncc3)C[C@H]4CNCC(F)(F)F)c3ccccc32)c(F)c1 [Example 2-11-3]

760
8.6
9
12
16
12

I have 4 compounds here; please give me IC50 for each one.
1. CCOc1cc(F)c(Cn2nc(-c3nc4c(c(Nc5ccncc5)n3)CCCC4)c3ccccc32)c(F)c1 [Example 2-19-21]
2. CCOc1cc(F)c(Cn2nc(-c3nc(Nc4ccncc4OC)cc(-c4ccn(C)n4)n3)c3ccccc32)c(F)c1 [Example 2-12-94]
3. CCOc1cc(F)c(Cn2nc(-c3nc(Nc4ccnc(NC(C)=O)c4)cc(C4CCOCC4)n3)c3ccccc32)c(F)c1 [Example 2-12-90]
4. CCOc1cc(F)c(Cn2nc(-c3ncc(C)c(Nc4ccncc4)n3)c3ccccc32)c(F)c1 [Example 2-2-4]

12
9.7
11
13

###

system: Bub1 (Homo sapiens, UniProt O43683)
Sequence (O43683 whole entry): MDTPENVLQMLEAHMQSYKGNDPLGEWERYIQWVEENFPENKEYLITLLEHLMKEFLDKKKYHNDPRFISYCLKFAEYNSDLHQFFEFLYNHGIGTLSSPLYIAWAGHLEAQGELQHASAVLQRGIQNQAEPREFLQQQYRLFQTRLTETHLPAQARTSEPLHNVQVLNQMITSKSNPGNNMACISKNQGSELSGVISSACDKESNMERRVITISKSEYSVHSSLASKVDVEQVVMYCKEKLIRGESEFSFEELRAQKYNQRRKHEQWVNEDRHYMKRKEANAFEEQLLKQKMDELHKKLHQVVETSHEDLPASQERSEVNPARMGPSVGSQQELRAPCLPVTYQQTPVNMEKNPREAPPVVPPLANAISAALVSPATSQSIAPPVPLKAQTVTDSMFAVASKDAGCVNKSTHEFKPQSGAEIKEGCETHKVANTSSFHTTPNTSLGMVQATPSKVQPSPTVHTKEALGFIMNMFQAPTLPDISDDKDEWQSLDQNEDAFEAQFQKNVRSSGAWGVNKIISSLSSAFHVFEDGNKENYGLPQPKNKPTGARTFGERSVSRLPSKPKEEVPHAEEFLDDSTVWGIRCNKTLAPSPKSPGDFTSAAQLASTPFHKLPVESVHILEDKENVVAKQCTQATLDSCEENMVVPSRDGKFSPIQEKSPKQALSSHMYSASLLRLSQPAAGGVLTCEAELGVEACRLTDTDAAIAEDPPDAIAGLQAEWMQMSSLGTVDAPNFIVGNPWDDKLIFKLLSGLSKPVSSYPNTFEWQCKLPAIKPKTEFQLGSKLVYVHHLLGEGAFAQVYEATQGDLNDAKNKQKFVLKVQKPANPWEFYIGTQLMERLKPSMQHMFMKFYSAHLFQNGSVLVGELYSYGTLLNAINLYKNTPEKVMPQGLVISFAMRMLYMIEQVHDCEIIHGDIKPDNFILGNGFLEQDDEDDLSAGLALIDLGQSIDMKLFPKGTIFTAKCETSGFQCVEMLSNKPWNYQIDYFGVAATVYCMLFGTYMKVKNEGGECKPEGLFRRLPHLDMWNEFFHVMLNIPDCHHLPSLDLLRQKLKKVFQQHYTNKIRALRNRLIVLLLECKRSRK
assay_protocol: Formation-Assay: phosphorylation status of histone 2A by inhibition of kinase activity of Bub1
Type: cell-based
condition: Biological Assay 4.1: H2A Formation IC50, co-treatment with Nocodazole 1 μg/ml, 16 h
metric_name: pIC50
One number for each entry, as −log10 of the molar value.

Below are worked cases with known answers.
CCOc1cc(F)c(Cn2nc(-c3nc4c(c(Nc5ccncc5)n3)CCNC4)c3ccccc32)c(F)c1 7.70
CCOc1cc(F)c(Cn2nc(-c3ncc4c(n3)N(c3ccncc3)C[C@H]4CNCC(F)(F)F)c3ccccc32)c(F)c1 7.03
CCOc1cc(F)c(Cn2nc(-c3ncc(CCCN4CCOCC4)c(Nc4ccncc4C(F)(F)F)n3)c3ccccc32)c(F)c1 5.41

# next molecule below
Name the reported pIC50 value associated with the molecule CCOc1cc(F)c(Cn2nc(-c3nc4c(c(Nc5ccnnc5)n3)CCC4)c3ccccc32)c(F)c1
8.57

###

Assign IC50 to each entry below.
system: catalytic domain of human Bub1 (amino acids 704-1085) (Homo sapiens, UniProt O43683)
Construct: catalytic domain of human Bub1 (amino acids 704-1085); His6 (N); made in house; host or cells: Hi5 insect cells
assay_protocol: Bub1 kinase assay (TR-FRET)
Assay type: biochemical
condition: Biological Assay 1: Bub1 kinase assay median IC50, 10 μM ATP
Answers are plain numbers, in nM.

Below are worked cases with known answers.
compound	unit_descriptor	IC50
Cc1nccc(Nc2nc(-c3nn(Cc4c(F)cc(OCCO)cc4F)c4ccccc34)ncc2C2CCN(CC(F)F)CC2)n1	nM	58
CCOc1cc(F)c(Cn2nc(-c3ncc(C4CCN(CC(F)(F)F)CC4)c(Nc4ccnc(C)c4)n3)c3ccccc32)c(F)c1	nM	68
Cc1nccc(Nc2nc(-c3nn(Cc4c(F)cc(OCCO)cc4F)c4ccccc34)nc3c2CCC(C)(C)C3)n1	nM	120

I have 2 compounds here; please give me IC50 for each one.
1. CCOc1cc(F)c(Cn2nc(-c3nc4c(c(Nc5ccnc(C)n5)n3)CC(C)(C)C4)c3ccccc32)c(F)c1
2. CCOc1cc(F)c(Cn2nc(-c3nc(Nc4ccnc(C)n4)cc(C4CCCO4)n3)c3ccccc32)c(F)c1 (racemic)

1. 38
2. 37

I have 8 compounds here; please give me IC50 for each one.
1. CCOc1cc(F)c(Cn2nc(-c3ncc(CCCOC)c(Nc4ccncc4)n3)c3ccccc32)c(F)c1
2. CC1(C)CCc2c(nc(-c3nn(Cc4c(F)cc(OCCO)cc4F)c4ccccc34)nc2Nc2ccncc2Cl)C1
3. CCOc1cc(F)c(Cn2nc(-c3ncc(CCOC)c(Nc4ccncc4)n3)c3ccccc32)c(F)c1
4. COCCOc1cc(F)c(Cn2nc(-c3nc4c(c(Nc5ccnc(C)n5)n3)CC(C)(C)C4)c3ccccc32)c(F)c1
5. CCOc1cc(F)c(Cn2nc(-c3nc4c(c(Nc5ccncc5C)n3)CCN(Cc3ccccc3)C4)c3ccccc32)c(F)c1
6. COCc1cc(Nc2ccnc(C)c2)nc(-c2nn(Cc3c(F)cc(OCCO)cc3F)c3ccccc23)n1
7. CCOc1cc(F)c(Cn2nc(-c3ncc(OCCS(C)(=O)=O)c(Nc4ccncc4)n3)c3ccccc32)c(F)c1 [Example 3-3-1, reference compound]
8. COCCOc1cc(F)c(Cn2nc(-c3ncc(C4CCNCC4)c(Nc4ccncc4Cl)n3)c3ccccc32)c(F)c1

1. 17
2. 48
3. 12
4. 74
5. 290
6. 45
7. 5.9
8. 7.5

I have 2 compounds here; please give me IC50 for each one.
1. OCCOc1cc(F)c(Cn2nc(-c3nc4c(c(Nc5ccncn5)n3)CN(CC(F)(F)F)C4)c3ccccc32)c(F)c1
2. CCOc1cc(F)c(Cn2nc(-c3ncc(CNC=O)c(Nc4ccncc4)n3)c3ccccc32)c(F)c1

[9.3, 10]

I have 3 compounds here; please give me IC50 for each one.
1. Cc1nccc(Nc2nc(-c3nn(Cc4c(F)cc(OCCO)cc4F)c4ccccc34)nc3c2CN(CC(F)(F)F)C3)n1
2. CCOc1cc(F)c(Cn2nc(-c3ncc(CCNCC(F)(F)F)c(Nc4ccnc(C)n4)n3)c3ccccc32)c(F)c1
3. COCCOc1cc(F)c(Cn2nc(-c3nc4c(c(Nc5cc(C)ncc5F)n3)CCC4)c3ccccc32)c(F)c1

1. 55
2. 560
3. 17

###

system: catalytic domain of human Bub1 (amino acids 704-1085) (Homo sapiens, UniProt O43683)
Construct: catalytic domain of human Bub1 (amino acids 704-1085); His6 (N); made in house; host or cells: Hi5 insect cells
assay_protocol: Bub1 kinase assay (TR-FRET)
Assay type: biochemical
condition: 10 μM ATP, read-out: Biological Assay 1: Bub1 kinase assay median IC50
metric_name: IC50 (nM)
Numbers only, in nM.

Below are worked cases with known answers.
molecule	IC50 (nM)
CCOc1cc(F)c(Cn2nc(-c3ncc(CCN)c(Nc4ccnc(NC(C)=O)c4)n3)c3ccccc32)c(F)c1 [Example 2-9-13]	7.1
CCOc1cc(F)c(Cn2nc(-c3nc(C)c(F)c(Nc4ccncc4)n3)c3ccccc32)c(F)c1 [Example 2-12-5]	6.5
CCOc1cc(F)c(Cn2nc(-c3nc4c(c(Nc5ccncc5C(F)(F)F)n3)CCC4)c3ccccc32)c(F)c1 [Example 2-14-3]	5.2
OCCOc1cc(F)c(Cn2nc(-c3nc(CN4CCOCC4)cc(Nc4ccncc4)n3)c3ccccc32)c(F)c1 [Example 2-6-38]	10
CCOc1cc(F)c(Cn2nc(-c3nc(Nc4ccncc4OC)cc(C(F)(F)F)n3)c3ccccc32)c(F)c1 [Example 2-12-81]	19

I have 2 molecules here; please give me IC50 for each one.
1. CCOc1cc(F)c(Cn2nc(-c3nc(C)c(Cl)c(Nc4ccncc4)n3)c3ccccc32)c(F)c1 [Example 2-12-23]
2. CCOc1cc(F)c(Cn2nc(-c3nc4c(c(Nc5ncncn5)n3)CCC4)c3ccccc32)c(F)c1 [Example 2-12-52]

1: 23; 2: 100

I have 5 molecules here; please give me IC50 for each one.
1. COCCOc1cc(F)c(Cn2nc(-c3ncc(C)c(Nc4ccncc4OC)n3)c3ccccc32)c(F)c1 [Example 2-2-47]
2. OCCOc1cc(F)c(Cn2nc(-c3nc(CN4CCOCC4)cc(Nc4ccnnc4)n3)c3ccccc32)c(F)c1 [Example 2-6-37]
3. CCOc1cc(F)c(Cn2nc(-c3nc(CN4CCOCC4)cc(Nc4ccnnc4)n3)c3ccccc32)c(F)c1 [Example 2-12-35]
4. CCOc1cc(F)c(Cn2nc(-c3nc4c(c(Nc5ccncc5OC)n3)CC(C)(C)CC4)c3ccccc32)c(F)c1 [Example 2-12-67]
5. CCOc1cc(F)c(Cn2nc(-c3nc(C)cc(Nc4ccncc4O)n3)c3ccccc32)c(F)c1 [Example 2-12-80]

8.7
40
17
66
51

I have 2 molecules here; please give me IC50 for each one.
1. CCOc1cc(F)c(Cn2nc(-c3ncc(CC4CNC4)c(Nc4ccncc4)n3)c3ccccc32)c(F)c1 [Example 2-9-4]
2. CCOc1cc(F)c(Cn2nc(-c3ncc(CCN)c(Nc4ccnc(C)n4)n3)c3ccccc32)c(F)c1 [Example 2-9-22]

[7.8, 9.3]

Reference source: patent US20170275270A1
